compounds and their reported IC50
# experimental_target: CDK1:Cyclin-B (Homo sapiens)
# Construct: purchased New England Biolabs 6020; host or cells: insect cells
# experiment_summary: CDK1 Screening Assay
# Format: biochemical
# condition_parameters: Table 1; read-out: CDK1 IC50
Express your answer in nM, writing the number without its unit.

Solved entries (count: 3):
Cc1ccsc1C(=O)n1nc(Nc2ccc(-n3cnnc3)cc2)nc1N = 2350
Nc1nc(Nc2ccc(S(N)(=O)=O)cc2)nn1C(=O)c1ccsc1 = 17
CC(C)(C)OC(=O)/C=C/c1ccc(C(=O)n2nc(Nc3ccc(S(N)(=O)=O)cc3)nc2N)s1 = 35

# input for lookup
// lookup IC50 for Nc1nc(Nc2ccc(S(N)(=O)=O)cc2)nn1C(=O)/C=C/c1c(F)cccc1F
522

====

# experimental_target: HER2 (human epidermal growth factor receptor-2) (Homo sapiens)
# Construct: begins at amino acid 676 followed by the remainder of the HER2 cytoplasmic domain; polyhistidine (N)
# Sequence (P04626 676-1255 limits assumed): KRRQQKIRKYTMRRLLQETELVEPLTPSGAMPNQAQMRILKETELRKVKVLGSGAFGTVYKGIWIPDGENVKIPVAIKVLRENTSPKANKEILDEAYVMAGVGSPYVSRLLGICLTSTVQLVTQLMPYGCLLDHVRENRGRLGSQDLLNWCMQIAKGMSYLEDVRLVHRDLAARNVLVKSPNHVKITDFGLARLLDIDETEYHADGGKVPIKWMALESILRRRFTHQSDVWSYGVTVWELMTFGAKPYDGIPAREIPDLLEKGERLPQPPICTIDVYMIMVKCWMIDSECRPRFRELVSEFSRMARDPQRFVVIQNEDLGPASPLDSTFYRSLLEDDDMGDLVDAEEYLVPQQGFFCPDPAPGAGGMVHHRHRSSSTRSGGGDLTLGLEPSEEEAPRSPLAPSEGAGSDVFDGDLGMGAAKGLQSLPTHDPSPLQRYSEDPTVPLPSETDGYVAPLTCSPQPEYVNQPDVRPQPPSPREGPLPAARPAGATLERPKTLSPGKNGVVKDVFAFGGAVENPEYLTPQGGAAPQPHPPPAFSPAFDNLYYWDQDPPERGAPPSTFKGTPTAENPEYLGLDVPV
# experiment_summary: Kinase Selectivity Assay HER2
# Format: biochemical
# condition_parameters: Table 1; read-out: HER2 IC50
# Method: Assays to test compound inhibition of other kinases were preformed using methods that measure the amount of phosphorylation of a biotinylated peptide substrate. Biotinylated peptide substrates were selected from the literature as appropriate for the enzyme being evaluated. […] The plate was read on a scintillation counter to determine ^33P-γ-ATP incorporated into the immobilized peptide. […] A maximum and minimum signal for the assay was determined on each plate. […]
pIC50: −log10 of the molar value.
This listing pairs compounds with measured pIC50.

Below, 3 compounds whose answers are already recorded.
CCc1ccc(C(=O)n2nc(Nc3ccc(-n4ccnc4)cc3)nc2N)s1 [Cpd 90] = ~7.00
CCc1ccc(C(=O)n2nc(Nc3ccc(S(=O)(=O)Nc4ccccn4)cc3)nc2N)s1 [Cpd 119] = ~6.00
CNc1nc(N)n(C(=O)c2sccc2C)n1 [Cpd 79] = < 4.00

Now for a further compound.
Given CCc1ccc(C(=O)n2nc(Nc3ccc(-n4cncn4)cc3)nc2N)s1 [Cpd 97] , state its recorded pIC50.
~8.00

====

Recorded pIC50 by entry
# experimental_target: CDK1:Cyclin-B (Homo sapiens, UniProt P06493)
# Construct: purchased New England Biolabs 6020; host or cells: insect cells
# Sequence (P06493 whole entry): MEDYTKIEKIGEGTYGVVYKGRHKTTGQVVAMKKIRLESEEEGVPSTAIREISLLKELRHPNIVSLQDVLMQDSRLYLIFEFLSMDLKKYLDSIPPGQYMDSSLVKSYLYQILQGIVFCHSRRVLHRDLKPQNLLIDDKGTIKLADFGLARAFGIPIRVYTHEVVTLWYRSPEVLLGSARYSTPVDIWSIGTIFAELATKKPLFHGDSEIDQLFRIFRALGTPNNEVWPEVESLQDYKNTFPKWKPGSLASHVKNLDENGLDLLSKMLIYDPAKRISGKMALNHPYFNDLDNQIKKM
# Sequence (P14635 whole entry partner): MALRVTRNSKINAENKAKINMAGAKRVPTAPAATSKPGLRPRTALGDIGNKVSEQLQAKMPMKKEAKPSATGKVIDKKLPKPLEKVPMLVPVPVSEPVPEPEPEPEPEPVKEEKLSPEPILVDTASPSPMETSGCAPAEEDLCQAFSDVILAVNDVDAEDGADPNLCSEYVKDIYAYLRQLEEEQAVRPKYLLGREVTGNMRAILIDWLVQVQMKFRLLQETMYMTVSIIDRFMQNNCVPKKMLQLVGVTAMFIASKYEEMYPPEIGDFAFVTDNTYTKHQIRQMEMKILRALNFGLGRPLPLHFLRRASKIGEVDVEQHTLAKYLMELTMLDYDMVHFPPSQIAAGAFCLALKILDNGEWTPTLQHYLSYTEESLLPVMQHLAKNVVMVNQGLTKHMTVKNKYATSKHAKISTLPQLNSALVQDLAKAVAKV
# experiment_summary: CDK1 Screening Assay
# Assay type: biochemical
# condition_parameters: Kinase Selectivity, Tables 2a-2k; read-out: CDK1 IC50
To interpret pIC50, take it as minus log10 of a concentration measured in moles per litre.

Nc1nc(Nc2cccc(Cl)c2)nn1C(=O)c1ccccc1 = 6.68
CCc1ccc(C(=O)n2nc(Nc3ccc(S(=O)(=O)NC)cc3)nc2N)s1 = 8.40
Cc1nc(C)c(C(=O)n2nc(Nc3ccc(S(N)(=O)=O)cc3)nc2N)s1 = 8.70
Cc1ccsc1C(=O)n1nc(Nc2ccc(N3CCNC3=O)cc2)nc1N = 6.60
Nc1nc(Nc2ccc(S(=O)(=O)N3CCCCC3)cc2)nn1C(=O)c1cccs1 = 7.05
CC(O)c1ccc(F)c(C(=O)n2nc(Nc3ccc(S(N)(=O)=O)cc3)nc2N)c1F (stereo not shown) = 7.85

What does the record list as pIC50 for Cc1cc(C)c(C(=O)n2nc(Nc3ccc(S(=O)(=O)Nc4ccccn4)cc3)nc2N)s1 ?
6.56

Recorded pIC50 for Cc1ccc(F)c(C(=O)n2nc(N)nc2Nc2ccc(S(N)(=O)=O)cc2)c1F , please?
5.69

Origin of values: patent US6924302B2
